Hello, the source for this data is PubChem BioAssay (NCI), in case you need it.

- Tested on: M14 melanoma
- assay-notes: NCI tumour cell line growth inhibition, 48 h
Field: GI50. Provide a value for each of the compounds that follow.

Request: Quick check: GI50 on M14 melanoma, item CC(=N\O)/C(C)=N/O.CC(=N\O)/C(C)=N/O.CC(=N\O)/C(C)=N/O.CC(=N\O)/C(C)=N/O.[Cu].[Cu] ?
Response: 18.9 µM

Request: CCCCCCOc1ccc(/C=N/NC(N)=S)cc1
Response: 2.54 µM

Request: O=C(Nc1ccc(Cl)cc1)c1cc2c(cc1O)[nH]c1ccccc12
Response: 2.85 µM

Request: Fc1ccc(C2CC(c3cccc(Nc4ccncc4)c3)=NN2c2cc(Cl)cc(Cl)c2)cc1 (centres undefined)
Response: 1.74 µM

Request: CCN(CC)c1ccc(N=C2C=C(C(=O)Nc3ccc(S(C)(=O)=O)cc3)C(=O)c3ccccc32)c(C)c1
Response: 88.5 µM

Request: O=S1(=O)N(Cc2ccccc2)[C@@H](Cc2ccccc2)C2O[C@H]2[C@H](Cc2ccccc2)N1Cc1ccccc1 (some centres undefined)
Response: > 7.5 µM

Request: NC(=O)C(Br)CBr (centres undefined)
Response: 1.63 µM

Request: C=C1C(=O)O[C@H]2[C@H]1CC/C(CNS(=O)(=O)c1ccc3ccccc3c1)=C\CC[C@@]1(C)O[C@@H]21
Response: 1.57 µM

Request: N#Cc1c2ccccc2c2n1-c1ccccc1OC(c1ccccc1)C2=O (centres undefined)
Response: 3.89 µM

* * *

- System: MDA-MB-231 breast
- assay-notes: NCI tumour cell line growth inhibition, 48 h
Class rule met: TGI at least 6 µM. Class rule not met: TGI below 6 µM.

Request: Could you please find out whether COc1ccc(C2=CC(c3cc(OC)c(OC)c(OC)c3)NC(=O)N2)cc1OC (stereo not given) has TGI that meets 6 µM or exceeds it?
Response: rule met

Request: CO/C(=N\N=C\c1ccc(Cl)cc1Cl)c1ccncc1
Response: rule met

Request: Cc1ccccc1S(=O)(=O)N1[C@H](c2ccc(Cl)cc2)C(C(=O)N[C@@H](Cc2ccccc2)C(N)=O)=C[C@@H]1C(C)(C)C
Response: rule met

Request: C=CCN(c1cc(OCc2ccccc2)c(NC(C)=O)cc1[N+](=O)[O-])S(C)(=O)=O
Response: rule met

Request: CC(=NCCN(CCN=C(C)c1c(O)cc(C)oc1=O)CCN=C(C)c1c(O)cc(C)oc1=O)c1c(O)cc(C)oc1=O
Response: rule met

Request: c1cc(C[S+]2CCCC2)ccc1C[S+]1CCCC1
Response: rule met

Request: CCOC(=O)/C(C#N)=C/c1ccc(CO)o1
Response: rule met

Request: S=C1C(=Nc2ccccc2)N(c2ccccc2)/C(=N\c2ccccn2)N1c1ccccc1
Response: rule met

Request: NC1C2C(CC(=O)O)OCC=C3CN4CCC1(C(=O)C(=O)O)C4CC32 (stereo not given)
Response: rule met

Request: COc1ccc(Oc2nc3ccc(C(F)(F)F)cc3nc2-c2ccccc2)cc1
Response: rule met

Request: CC1=C(C(=O)Nc2ccc3[nH]ncc3c2)C(c2ccc(F)cc2)NC(=O)N1 (stereo not given)
Response: rule met

Request: CCOC(=O)c1c2c(n(-c3ccc(OC)cc3)c1C)C(=O)C(=O)c1ccccc1-2
Response: rule not met

Request: C[N+](C)([O-])CCCNc1c2ccccc2nc2cccc([N+](=O)[O-])c12
Response: rule not met

Request: C=C(CC(=O)Nc1ccc(C(=O)OC)o1)C(=O)OC
Response: rule met

Request: CCOC(=O)c1cc2c(n1Cc1cc(OC)cc(OC)c1)-c1oncc1CCC2
Response: rule met

Request: COc1ccc(Nc2ncccc2/C=C/C(=O)c2cc(OC)c(OC)c(OC)c2)cc1
Response: rule not met

Request: CC(=O)NC1C(OCc2ccccc2)OC(CO)C(O)C1OCC(=O)NC(C)C(=O)NC(CCC(=O)NCCCCCNc1c2ccccc2nc2cccc([N+](=O)[O-])c12)C(N)=O (stereo not given)
Response: rule not met

Request: CN(C)/C=C/c1nnnn1-c1ccc(Cl)cc1
Response: rule met

Request: COC(=O)Nc1nc2ccc(Oc3ccc(NC(=O)Nc4cccc(Br)c4)cc3)cc2[nH]1
Response: rule met

Request: CCOC(=O)C1=C(C)C(C(=O)OC)/C(=C/c2cccc3cccnc23)C1=O (stereo not given)
Response: rule met
